target: preformed Aβ1–42 fibrils (Homo sapiens, UniProt P05067); test: Aβ1–42 disaggregation assay
Sequence (P05067 672-713): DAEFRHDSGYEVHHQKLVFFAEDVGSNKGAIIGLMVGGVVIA
assay-readout: EC50 (nM)

molecule: COc1ccc(-c2cc(=O)c3c(O)cc(O)cc3o2)cc1-c1c(O)cc(O)c2c(=O)cc(-c3ccc(O)cc3)oc12
reported-measurement: 2450

(A) COc1cc(O)c2c(=O)cc(-c3ccc(O)c(-c4c(O)cc(O)c5c(=O)cc(-c6ccc(O)cc6)oc45)c3)oc2c1
(B) O=c1cc(-c2ccc(O)c(-c3c(O)cc(O)c4c(=O)cc(-c5ccc(O)cc5)oc34)c2)oc2cc(O)cc(O)c12
(C) COc1cc(O)c2c(=O)cc(-c3ccc(OC)c(-c4c(O)cc(O)c5c(=O)cc(-c6ccc(O)cc6)oc45)c3)oc2c1
Order these by EC50, descending, and give the full ranking. Your answer should be the labels, listed in the requested order.
C, A, B
(C: 6810 nM, A: 2040 nM, B: 590 nM)
